protocol-summary: protein stability index of a GFP-peptide fusion (yeast GPS) (PSI 1-4); higher = more stable; sorted into four equal gates, so the index is relative within each strain
condition-details: pdr5∆
observable: protein stability index
Give the figure by itself; no unit, no explanation.

As a guide, the following entries are already answered.
- residue-sequence: "DNNNGDDDDEDDDEIVM [SKP1]"
  observable: "protein stability index"
  quantitative-readout: 2.93
- residue-sequence: "PHNSKSLGFLQQSNKLH [RPN3]"
  observable: "protein stability index"
  quantitative-readout: 3.07
- residue-sequence: "KSRMINFLDAPGHVNFM [SNU114]"
  observable: "protein stability index"
  quantitative-readout: 2.65
- residue-sequence: "KDNECSSFEENNDLESV [RRI2]"
  observable: "protein stability index"
  quantitative-readout: 3.12

Check the records and state protein stability index for DGLIAPGVRVSGEDVII [RPB2]
2.69

Quickly give me recorded protein stability index for EYINNCKKNTKKCLKLA [POP4]
3.1

# return recorded protein stability index for entry DSNGDFNEDQLFSLLEL [RRP46]
2.82

Provide measured protein stability index value, entry: SLLDAEEERRKKRESGV [SNF2]
3.32

Return reported protein stability index. Input sequence: AEFKKENLADLDYQIGN [LIN1]
3.32

Report protein stability index, nothing else, for this sequence: SVILSVISMFVLPIFTT [YML031W/NDC1]
1.5

Report protein stability index for KDIIDPKLTSIFERMIE [RPN2]
2.99

Give reported protein stability index value for KRITQITIEPGVDVEVV [RPS20]
1.78

Output measured protein stability index for this item: ELSNELSRLSTASKIIV [MED1]
2.55

Output measured protein stability index for this item: LYNVMGINKKKLLAISK [RPC31]
2.3

----------
protocol-summary: protein stability index of a GFP-peptide fusion (yeast GPS) (PSI 1-4); higher = more stable; sorted into four equal gates, so the index is relative within each strain
condition-details: san1∆
observable: protein stability index
Give the value as a plain number.

- residue-sequence: "PRLGSIDRNLKCQTCQE [RPO21]"
  protein stability index: 2.18
- residue-sequence: "LIITRKAFKNNSSKYYI [SMC4]"
  protein stability index: 2.66
- residue-sequence: "FEGDSNMLICAPTGSGK [BRR2]"
  protein stability index: 1.71
- residue-sequence: "VLDSMTKEELESDGRMF [SRP54]"
  protein stability index: 3.37
- residue-sequence: "CTNLTNRTLYELADLPK [GRR1]"
  protein stability index: 2.92

From here, focus on the item given below.
Indicate its recorded protein stability index; the sequence in question is SEHFDVNDNPDIEAGDD [DIS3]
2.72

----------
protocol-summary: protein stability index of a GFP-peptide fusion (yeast GPS) (PSI 1-4); higher = more stable; sorted into four equal gates, so the index is relative within each strain
condition-details: doa10∆
Each record here notes measured protein stability index.
Lab note: record the figure alone, no unit after it.

Known results for sequences:
- residue-sequence: "DNPLRQIPHFNNKILEK [BRR2]"
  protein stability index: 3.08
- residue-sequence: "IPNIPPNINTWQQVTAL [GAL11]"
  protein stability index: 2.96
- residue-sequence: "IKTRDACPLDNQPWQLA [HRT1]"
  protein stability index: 3.02

For the sequence VVLGVEKRATSPLLESD [PUP2] , give its measured protein stability index value.
2.98

Check the records and state protein stability index for GYLIQVLLTFLQDELHK [YCS4]
2.97

For the sequence HPLHELIIQYPPNNARR [ISW2] , give its measured protein stability index value.
3.06

Find the measured protein stability index of SGQFYFRNPTPLLSNYA [RGR1] and report it.
1.36

# return recorded protein stability index for entry VQEQLSKNRIIVEADEK [RET1]
1.52

Dear colleague, please send me the reported protein stability index for IKWENAFVSVYSKNNPN [PRP8] when you can.
2.11

Quickly give me recorded protein stability index for NPIHVSRHFASYANLPG [FAS1]
2.23

Identify the reported protein stability index for the following entry. VMLKGIVTALLESDVNI [SRP54]
1.3

----------
protocol-summary: protein stability index of a GFP-peptide fusion (yeast GPS) (PSI 1-4); higher = more stable; sorted into four equal gates, so the index is relative within each strain
condition-details: san1∆
Decide by protein stability index: equal to or exceeding 2 means 1.0, less means 0.0.

Worked cases, answers included:
- residue-sequence: "TVHKTFEGNVATKAING [PRP8]"
  qualitative-label: 0.0
- residue-sequence: "EQHNLVKKGPVRLPTKV [RPS20]"
  qualitative-label: 1.0
- residue-sequence: "SNIPNLLRNLESKMRQQ [YDL088C/ASM4]"
  qualitative-label: 1.0
- residue-sequence: "EGKSVDELITEGNEKLA [RPP2A]"
  qualitative-label: 1.0

Can LTADYDALDIANRIGYI [RPL25] be said to have protein stability index at or above 2?
1.0

Does TLQDIGFYQIKKIVDSK [YMR129W/POM152] have a reported protein stability index of at least 2?
1.0

Check this sequence for protein stability index at or above 2: KVVGPRGTLTKNLKHID [RPL9A]
1.0

Decide: protein stability index of CVVLGCERRSTLKLQDT [PRE6] >= 2?
0.0

Does protein stability index meet or surpass 2 for SRKETSRTATWLKNKFA [BRR2] ?
0.0

API: above_or_equal(metric=protein stability index, cutoff=2) for item VPPVENFPVRQWSIEIV [TAF14]
1.0

Is protein stability index for QIILDRFAPDNQVTDSS [SIR3] at or above 2?
1.0

Check if protein stability index >= 2 (inclusive). Item: PIPFEFQAVIQKSINHP [SNF2]
1.0

Hi team, for YVTKPMVNESDGVTHAL [RPB2] , is the recorded protein stability index at or above 2?
1.0

Check if protein stability index >= 2 (inclusive). Item: KSSDSNDSNPSFSFSIP [YLR335W/NUP2]
1.0

Is the recorded value of protein stability index equal to or greater than 2 for this sequence? RNQVQTENVAQARIILN [YGR119C/NUP57]
1.0

Please check the record LASRNKWDDLNEQLTLL [RPN5] and state if its protein stability index is at or above 2.
1.0

Quick check, protein stability index >= 2? PKCHSRENVFFQSQQRR [RPB9]
1.0

# check: protein stability index of YWTQYLGLFIHKISFSG [YJL039C/NUP192] is greater than or equal to 2
0.0

----------
protocol-summary: protein stability index of a GFP-peptide fusion (yeast GPS) (PSI 1-4); higher = more stable; sorted into four equal gates, so the index is relative within each strain
condition-details: pdr5∆
observable: protein stability index
Answer field: number only, no words.

- residue-sequence: "KHDSLRYRLLSDVSDFE [RPN1]"
  quantitative-readout: 3.04
- residue-sequence: "PSLRDRRERRLIFGTIA [RPT3]"
  quantitative-readout: 2.04
- residue-sequence: "TPIAGRFTPGSFTNYIT [RPS0A]"
  quantitative-readout: 2.99
- residue-sequence: "LGTVQREIESLIAEETN [SMC3]"
  quantitative-readout: 2.83
- residue-sequence: "STVAKFLARVIKEKFDE [IRR1]"
  quantitative-readout: 2.33

Quick one: give measured protein stability index for SFEETVEILFEAGASAE [RPO21]
2.77

State, in one line, measured protein stability index of HCIDYLRKNKLGYARFI [SMC4]
1.21

----------
protocol-summary: protein stability index of a GFP-peptide fusion (yeast GPS) (PSI 1-4); higher = more stable; sorted into four equal gates, so the index is relative within each strain
condition-details: doa10∆
Where protein stability index equals or exceeds 3, the correct label is 1; where it does not, the label is -1.

A selection of reference data follows.
- residue-sequence: "ILKRDFELVSDLSYIEF [ECM29]"
  qualitative-label: -1
- residue-sequence: "QGNYVTEDIREGDQAEV [YMR129W/POM152]"
  qualitative-label: 1
- residue-sequence: "PSHEKLKESYSQKHNGR [CDC53]"
  qualitative-label: 1
- residue-sequence: "FILADAGLEITSDNLLT [RPP1B]"
  qualitative-label: -1
- residue-sequence: "LVYNMTSFEQGEITFDG [RPT4]"
  qualitative-label: -1

Switching to the query record.
Has NIAKDLKWKKGIRGKLV [SMC1] a recorded protein stability index greater than or equal to 3?
-1

----------
protocol-summary: protein stability index of a GFP-peptide fusion (yeast GPS) (PSI 1-4); higher = more stable; sorted into four equal gates, so the index is relative within each strain
condition-details: doa10∆
Rule: protein stability index under 3 gives no, otherwise yes.

- residue-sequence: "KILRDNIQGITKPAIRR [HHF1]"
  qualitative-label: "yes"
- residue-sequence: "RAASVGSLKLIELLCGL [NAS6]"
  qualitative-label: "no"
- residue-sequence: "NADLDVKDELMFSPLVD [RPO21]"
  qualitative-label: "yes"
- residue-sequence: "DVVGTLSRNGKPVMEVT [FAS1]"
  qualitative-label: "no"
- residue-sequence: "TRVNAQLESYEYMVQYI [RRI1]"
  qualitative-label: "yes"

Given the entry PKNKLVPTLEAKRDYII [FAS1] , answer whether its protein stability index meets or surpasses 3.
no

Given the entry FSEGTSADREIQRTLME [RPT4] , answer whether its protein stability index meets or surpasses 3.
yes

protein stability index >= 3 for PVKSIRARLKGKEGRIR [RPO21] ?
yes

In plain terms: is recorded protein stability index at least 3 for SKKLNLKIHQSHLVVPY [YMR129W/POM152] ?
no

Tell me whether protein stability index is at least 3 here: SSKKVFSSNLSYANHLE [YOR098C/NUP1]
no

Reported protein stability index reaches at least 3 for SLTAEAMTAAEHGLHAP [CYT1] ?
no

For this sequence, is measured protein stability index 3 or higher? QPLFSTVPEYLKTADNR [PGD1]
no

Does the sequence VRLLCRSDGMGNVLLNA [YLR335W/NUP2] have recorded protein stability index that is 3 or more?
no
